Values compiled from patent US8153809B2.

Biological target: P2X7 (UniProt Q99572)
Experiment: pIC50 values for P2X7 (Table 1)
Assay type: cell-based
PARAMETER: pIC50

>  <COMPOUND>
COc1cc(NC(=O)N2C=CC(=O)C[C@H]2c2ccc(F)c(F)c2)c(Br)cc1C

>  <pIC50>
7.54

$$$$
>  <COMPOUND>
Cc1cc2cc(NC(=O)N3C=CC(=O)CC3c3ccc(F)cc3)ccc2o1 (stereo not drawn)

>  <pIC50>
6.315

$$$$
>  <COMPOUND>
O=C1C=CN(C(=O)Nc2cccc3ncccc23)[C@H](c2ccc(F)cc2)C1

>  <pIC50>
8.64

$$$$
>  <COMPOUND>
Cc1cc(Cl)c(CO)cc1NC(=O)N1C=CC(=O)C[C@H]1c1ccc(F)cc1

>  <pIC50>
7.735

$$$$
>  <COMPOUND>
COc1cc(NC(=O)N2C=CC(=O)C[C@H]2c2cccc(F)c2)ccc1F

>  <pIC50>
6.83

$$$$
>  <COMPOUND>
COc1ccccc1NC(=O)N1C=CC(=O)CC1c1ccc(F)cc1 (stereo not drawn)

>  <pIC50>
5.91

$$$$
>  <COMPOUND>
C[C@H](O)c1cc(NC(=O)N2C=CC(=O)C[C@H]2c2ccc(F)cc2)c(Br)cc1Cl

>  <pIC50>
7.56

$$$$
>  <COMPOUND>
COc1cc(NC(=O)N2C=CC(=O)C[C@H]2c2cc(F)cc(F)c2)c(Br)cc1C [Compound 78]

>  <pIC50>
7.675

$$$$
>  <COMPOUND>
Cc1cc(C)c(Br)c(NC(=O)N2C=CC(=O)C[C@H]2c2ccc(F)cc2)c1

>  <pIC50>
7.98

$$$$
>  <COMPOUND>
COc1cc(NC(=O)N2C=CC(=O)C[C@H]2c2ccccc2)c(Br)cc1Cl

>  <pIC50>
7.476

$$$$
>  <COMPOUND>
COc1cc(NC(=O)N2C=CC(=O)CC2c2ccc(F)cc2)c(N(C)C)cc1OC (stereo not drawn)

>  <pIC50>
5.915

$$$$
>  <COMPOUND>
COc1cc(NC(=O)N2C=CC(=O)C[C@H]2c2ccc(F)cc2)c(Br)cc1S(C)(=O)=O

>  <pIC50>
6.435

$$$$
>  <COMPOUND>
CCc1cc(OC)c(OC)cc1NC(=O)N1C=CC(=O)C[C@H]1c1ccc(F)cc1

>  <pIC50>
8.36

$$$$
>  <COMPOUND>
CN1C(=O)CCc2cc(Br)c(NC(=O)N3C=CC(=O)C[C@H]3c3ccc(F)cc3)cc21

>  <pIC50>
7.595

$$$$
>  <COMPOUND>
C[S@+]([O-])c1cc(NC(=O)N2C=CC(=O)C[C@H]2c2ccc(F)cc2)c(Br)cc1Cl

>  <pIC50>
5.86

$$$$
>  <COMPOUND>
COc1cc(NC(=O)N2C=CC(=O)C[C@H]2c2cccc(F)c2)c(Br)cc1C

>  <pIC50>
7.93

$$$$
>  <COMPOUND>
O=C1C=CN(C(=O)Nc2ccc3cc[nH]c3c2)C(c2ccc(F)cc2)C1 (stereo not drawn)

>  <pIC50>
6.615

$$$$
>  <COMPOUND>
O=C1C=CN(C(=O)Nc2cc(C(F)(F)F)c(Cl)cc2Br)[C@H](c2ccc(F)cc2)C1

>  <pIC50>
6.015

$$$$
>  <COMPOUND>
CC(O)c1cc(NC(=O)N2C=CC(=O)C[C@H]2c2ccc(F)cc2)c(Br)cc1Cl (stereo partly drawn)

>  <pIC50>
7.42

$$$$
>  <COMPOUND>
COc1cc(NC(=O)N2C=CC(=O)C[C@H]2c2ccc(F)cc2)c(C(C)C)cc1OC

>  <pIC50>
6.66

$$$$
>  <COMPOUND>
Cc1cc(Cl)c(OCCCO)cc1NC(=O)N1C=CC(=O)C[C@H]1c1ccc(F)cc1

>  <pIC50>
7.74

$$$$
>  <COMPOUND>
O=C1C=CN(C(=O)Nc2cccc3c2CCO3)[C@H](c2ccc(F)cc2)C1

>  <pIC50>
7.355

$$$$
>  <COMPOUND>
CS(=O)(=O)c1cc(NC(=O)N2C=CC(=O)C[C@H]2c2ccc(F)cc2)c(Br)cc1Cl

>  <pIC50>
5.94

$$$$
>  <COMPOUND>
COC(=O)c1cccc(NC(=O)N2C=CC(=O)C[C@H]2c2ccc(F)cc2)c1C

>  <pIC50>
7.44

$$$$
>  <COMPOUND>
Cc1cc2nccnc2cc1NC(=O)N1C=CC(=O)C[C@H]1c1ccc(F)cc1

>  <pIC50>
7.095

$$$$
>  <COMPOUND>
Cc1cc(F)c(NC(=O)N2C=CC(=O)C[C@H]2c2ccc(F)cc2)cc1OCCO

>  <pIC50>
6.62

$$$$
>  <COMPOUND>
Cc1cc(Br)c(NC(=O)N2C=CC(=O)C[C@H]2c2ccc(F)cc2)cc1C(=O)OC(C)(C)C

>  <pIC50>
6.67

$$$$
>  <COMPOUND>
Cc1cc2cccnc2cc1NC(=O)N1C=CC(=O)C[C@H]1c1ccc(F)cc1

>  <pIC50>
6.56

$$$$
>  <COMPOUND>
COc1cc(NC(=O)N2C=CC(=O)C[C@@H]2c2ccc(F)c(F)c2)c(Br)cc1C

>  <pIC50>
5.31

$$$$
>  <COMPOUND>
CC(=O)NCc1cc(NC(=O)N2C=CC(=O)C[C@H]2c2ccc(F)cc2)c(C)cc1Cl

>  <pIC50>
6.98

$$$$
>  <COMPOUND>
C[C@@H](O)c1cc(NC(=O)N2C=CC(=O)C[C@H]2c2ccc(F)cc2)c(Br)cc1Cl

>  <pIC50>
6.67

$$$$
>  <COMPOUND>
COc1ccc(Br)c(NC(=O)N2C=CC(=O)C[C@H]2c2ccc(F)cc2)n1

>  <pIC50>
6.32

$$$$
>  <COMPOUND>
C[S@@+]([O-])c1cc(NC(=O)N2C=CC(=O)C[C@H]2c2ccc(F)cc2)c(Br)cc1Cl

>  <pIC50>
6.623

$$$$
